Measured target: Human PARP-1 enzyme (Homo sapiens, UniProt P09874)
Construct: purchased Trevigen
Sequence (P09874 whole entry): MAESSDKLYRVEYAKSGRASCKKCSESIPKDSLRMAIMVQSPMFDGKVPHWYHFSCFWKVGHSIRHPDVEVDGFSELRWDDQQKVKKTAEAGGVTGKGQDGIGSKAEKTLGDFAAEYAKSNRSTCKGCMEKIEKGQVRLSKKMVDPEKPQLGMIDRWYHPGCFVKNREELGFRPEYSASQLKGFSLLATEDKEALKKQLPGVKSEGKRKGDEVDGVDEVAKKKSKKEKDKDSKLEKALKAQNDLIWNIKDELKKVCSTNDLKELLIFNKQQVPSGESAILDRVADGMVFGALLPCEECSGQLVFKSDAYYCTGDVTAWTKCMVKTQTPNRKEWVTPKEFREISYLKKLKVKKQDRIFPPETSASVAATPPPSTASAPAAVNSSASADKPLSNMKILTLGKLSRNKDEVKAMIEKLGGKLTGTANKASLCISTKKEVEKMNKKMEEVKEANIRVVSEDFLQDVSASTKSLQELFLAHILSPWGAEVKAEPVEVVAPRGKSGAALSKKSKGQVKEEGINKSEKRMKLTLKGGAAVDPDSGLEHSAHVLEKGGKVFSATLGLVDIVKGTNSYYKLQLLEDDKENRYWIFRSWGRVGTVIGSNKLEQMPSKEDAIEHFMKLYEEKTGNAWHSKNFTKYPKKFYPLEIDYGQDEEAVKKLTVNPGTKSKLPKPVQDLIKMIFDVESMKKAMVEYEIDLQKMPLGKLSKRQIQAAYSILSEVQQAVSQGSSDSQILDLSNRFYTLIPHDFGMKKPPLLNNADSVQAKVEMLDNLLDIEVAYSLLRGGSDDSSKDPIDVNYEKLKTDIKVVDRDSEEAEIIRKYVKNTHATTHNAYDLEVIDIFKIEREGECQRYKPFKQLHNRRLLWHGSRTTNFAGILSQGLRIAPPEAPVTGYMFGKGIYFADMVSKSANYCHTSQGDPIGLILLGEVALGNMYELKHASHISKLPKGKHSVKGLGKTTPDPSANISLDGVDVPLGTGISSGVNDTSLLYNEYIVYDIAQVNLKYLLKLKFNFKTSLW
Measurement protocol: In vitro Scintillation Proximity Assay (SPA) for PARP-1 inhibitory activity
Type: biochemical
Assay setup: read-out: in vitro SPA assay PARP-1 pIC50 (converted)
Quantity kind: IC50 (µM)

Known results for molecules:
{"columns": ["Molecule", "Measured target", "Quantity kind", "Value reported"],
 "data": [
  ["CCc1cc2ccc(C(C)(C#N)CCOc3ccc(C)cc3)cc2[nH]c1=O (centres unmarked)", "Human PARP-1 enzyme (Homo sapiens, UniProt P09874)", "IC50", 0.398],
  ["CCc1cc2ccc(C(C)(C#N)Cc3nc(C#N)cc(OC)n3)cc2[nH]c1=O (single isomer, unassigned) [Compound 204]", "Human PARP-1 enzyme (Homo sapiens, UniProt P09874)", "IC50", 0.0398],
  ["CCc1cc2ccc(C(C)(C#N)Cc3cccc(CCC#N)c3)cc2[nH]c1=O (centres unmarked) [Compound 165]", "Human PARP-1 enzyme (Homo sapiens, UniProt P09874)", "IC50", 0.251],
  ["CCc1cc2ccc(C(C)(C#N)Cc3cccc(OC)c3)cc2[nH]c1=O (centres unmarked)", "Human PARP-1 enzyme (Homo sapiens, UniProt P09874)", "IC50", 0.251],
  ["CCc1cc2ccc(C(C)(C#N)Cc3ccccc3F)cc2[nH]c1=O (centres unmarked)", "Human PARP-1 enzyme (Homo sapiens, UniProt P09874)", "IC50", 0.398]
]}

1: CCc1cc2ccc(C(C)(C#N)Cc3ccc(F)c(C)c3)cc2[nH]c1=O (centres unmarked)
2: CCc1cc2ccc(C(C)(C#N)CCOc3ccc([N+](=O)[O-])cc3)cc2[nH]c1=O (centres unmarked)
Challenge: Hi team, can someone confirm which has the larger IC50: 1 or 2 ? Thanks. Response format: the label of the selected entry.
Response given: 1
